Quick list: EC50 per entry.
- system-tested: T1, FGFR4 extracellular domain, immobilized (R4-Fc) (UniProt P22455 22-369)
- T1 construct: extracellular domain; also called FDCPR4-Fc
- T1 sequence (looked up): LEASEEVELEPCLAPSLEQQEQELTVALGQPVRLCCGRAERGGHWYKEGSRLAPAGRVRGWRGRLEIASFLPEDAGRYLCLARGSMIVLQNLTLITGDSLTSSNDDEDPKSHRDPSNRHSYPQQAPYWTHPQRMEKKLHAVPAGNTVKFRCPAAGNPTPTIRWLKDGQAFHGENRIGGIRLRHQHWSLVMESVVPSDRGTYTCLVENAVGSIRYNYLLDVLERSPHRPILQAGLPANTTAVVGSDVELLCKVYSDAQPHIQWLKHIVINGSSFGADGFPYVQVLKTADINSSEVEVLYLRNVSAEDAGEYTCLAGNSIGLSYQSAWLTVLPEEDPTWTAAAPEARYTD
- assay-comment: functional ELISA on immobilized FGFR
Note: unit ng/mL is implicit; provide only the numeric part.

// solved cases for EC50 follow
### Prompt Quick check: EC50 of FGF-18^Δ51 (ligand, biotinylated in the immobilized receptor assays (sites not given), E. coli expressed; Numbering includes the signal peptide (1-27); also called v3) MLRLYQLYSRTSGKHIQVLGRRISARGEDGDKYAQLLVETDTFGSQVRIKGKETEFYLCMNRKGKLVGKPDGTSKECVFIEKVLENNYTALMSAKYSGWYVGFTKKGRPRKGPKTRENQQDVHFMKRYPKGQPELQKPFKYTTVTKRSRRIRPTHPA ?
### Response 10.6

### Prompt Next entry: FGF-18^Δ37 (ligand, biotinylated in the immobilized receptor assays (sites not given), E. coli expressed; Numbering includes the signal peptide (1-27); also called v1) MENQTRARDDVSRKQLRLYQLYSRTSGKHIQVLGRRISARGEDGDKYAQLLVETDTFGSQVRIKGKETEFYLCMNRKGKLVGKPDGTSKECVFIEKVLENNYTALMSAKYSGWYVGFTKKGRPRKGPKTRENQQDVHFMKRYPKGQPELQKPFKYTTVTKRSRRIRPTHPA
### Response 8.28

Continuing:
### Prompt Quick check: EC50 of FGF-18^Δ33 (ligand, biotinylation not stated for the functional ELISA of Table 4, E. coli expressed; Numbering includes the signal peptide (1-27)) MRIHVENQTRARDDVSRKQLRLYQLYSRTSGKHIQVLGRRISARGEDGDKYAQLLVETDTFGSQVRIKGKETEFYLCMNRKGKLVGKPDGTSKECVFIEKVLENNYTALMSAKYSGWYVGFTKKGRPRKGPKTRENQQDVHFMKRYPKGQPELQKPFKYTTVTKRSRRIRPTHPA ?
### Response 7.11

### Prompt Next entry: FGF-18 (recombinant wild type, mature form without the signal peptide) (ligand, biotinylated in the immobilized receptor assays (sites not given), Expressed in E. coli from pET9a and purified on heparin Sepharose; also called FGF-18 wild type; F18 w.t) MENVDFRIHVENQTRARDDVSRKQLRLYQLYSRTSGKHIQVLGRRISARGEDGDKYAQLLVETDTFGSQVRIKGKETEFYLCMNRKGKLVGKPDGTSKECVFIEKVLENNYTALMSAKYSGWYVGFTKKGRPRKGPKTRENQQDVHFMKRYPKGQPELQKPFKYTTVTKRSRRIRPTHPA
### Response 10.2

### Prompt Next entry: FGF-18^Δ31 (ligand, biotinylation not stated for the functional ELISA of Table 4, E. coli expressed) MDFRIHVENQTRARDDVSRKQLRLYQLYSRTSGKHIQVLGRRISARGEDGDKYAQLLVETDTFGSQVRIKGKETEFYLCMNRKGKLVGKPDGTSKECVFIEKVLENNYTALMSAKYSGWYVGFTKKGRPRKGPKTRENQQDVHFMKRYPKGQPELQKPFKYTTVTKRSRRIRPTHPA
### Response 9.36
